Tested on: KB
Experiment: Cytotoxicity against human KB cells after 72 hrs by MTS assay
Assay type: functional, cell-based
pIC50: −log10 of the molar value. Where a SMILES comes first, the peptide text is derived from it.
The entries below are paired with their reported pIC50.

{"COMPOUND": "CC(C)C[C@@H]1NC(=O)CNC(=O)[C@H](Cc2ccccc2)NC(=O)[C@H](Cc2ccc(O)cc2)NC(=O)[C@H](C)NC(=O)CNC1=O (HELM PEPTIDE1{A.Y.F.G.L.G}$PEPTIDE1,PEPTIDE1,1:R1-6:R2$$$V2.0)", "RESULT TYPE": "pIC50", "EXPERIMENTAL VALUE": "< 5.00"}
{"COMPOUND": "CC(C)C[C@@H]1NC(=O)CNC(=O)[C@H](C)NC(=O)[C@H](Cc2ccc(O)cc2)NC(=O)[C@@H]2CCCN2C(=O)CNC1=O (HELM PEPTIDE1{A.G.L.G.P.Y}$PEPTIDE1,PEPTIDE1,1:R1-6:R2$$$V2.0)", "RESULT TYPE": "pIC50", "EXPERIMENTAL VALUE": "< 5.00"}
{"COMPOUND": "C[C@@H]1NC(=O)CNC(=O)[C@H](Cc2ccccc2)NC(=O)[C@H](Cc2ccc(O)cc2)NC(=O)[C@@H]2CCCN2C(=O)CNC1=O (HELM PEPTIDE1{A.G.P.Y.F.G}$PEPTIDE1,PEPTIDE1,1:R1-6:R2$$$V2.0)", "RESULT TYPE": "pIC50", "EXPERIMENTAL VALUE": "< 5.00"}

// next entry
*Q* Short answer please: pIC50, KB, entry CC(C)C[C@@H]1NC(=O)CNC(=O)[C@H](Cc2ccccc2)NC(=O)[C@H](Cc2ccc(O)cc2)NC(=O)[C@@H]2CCCN2C(=O)[C@H](C)NC1=O (HELM PEPTIDE1{A.P.Y.F.G.L}$PEPTIDE1,PEPTIDE1,1:R1-6:R2$$$V2.0)
*A* 5.20
